# TARGET SYSTEM: Tyrosine-protein kinase Lyn (Homo sapiens)
# Sequence (P07948 whole entry): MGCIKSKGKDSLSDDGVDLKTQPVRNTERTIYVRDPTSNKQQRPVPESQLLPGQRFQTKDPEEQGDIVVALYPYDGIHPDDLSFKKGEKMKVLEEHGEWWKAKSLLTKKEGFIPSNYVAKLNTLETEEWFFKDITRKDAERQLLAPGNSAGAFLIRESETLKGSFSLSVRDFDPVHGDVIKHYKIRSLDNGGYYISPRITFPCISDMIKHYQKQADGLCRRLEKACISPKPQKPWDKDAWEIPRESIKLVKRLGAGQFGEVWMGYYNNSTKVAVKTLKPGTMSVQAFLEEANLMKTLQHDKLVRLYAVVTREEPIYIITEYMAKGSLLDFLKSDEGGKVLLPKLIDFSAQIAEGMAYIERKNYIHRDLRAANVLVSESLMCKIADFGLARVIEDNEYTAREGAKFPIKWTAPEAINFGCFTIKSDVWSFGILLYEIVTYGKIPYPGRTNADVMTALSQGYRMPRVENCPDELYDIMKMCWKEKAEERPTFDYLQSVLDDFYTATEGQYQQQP
REPORTED METRIC: pIC50
Schema: pIC50 number; meaning minus log10 of the concentration expressed in molar units.

Which pIC50 value belongs to NCc1ccc(-c2cnc3[nH]cc(-c4cccc(NC(=O)Nc5ccc(C(F)(F)F)cc5F)c4)c3c2)cc1 ?
7.40

---

# TARGET SYSTEM: Inhibitor of nuclear factor kappa-B kinase subunit alpha (Homo sapiens)
# Sequence (O15111 whole entry): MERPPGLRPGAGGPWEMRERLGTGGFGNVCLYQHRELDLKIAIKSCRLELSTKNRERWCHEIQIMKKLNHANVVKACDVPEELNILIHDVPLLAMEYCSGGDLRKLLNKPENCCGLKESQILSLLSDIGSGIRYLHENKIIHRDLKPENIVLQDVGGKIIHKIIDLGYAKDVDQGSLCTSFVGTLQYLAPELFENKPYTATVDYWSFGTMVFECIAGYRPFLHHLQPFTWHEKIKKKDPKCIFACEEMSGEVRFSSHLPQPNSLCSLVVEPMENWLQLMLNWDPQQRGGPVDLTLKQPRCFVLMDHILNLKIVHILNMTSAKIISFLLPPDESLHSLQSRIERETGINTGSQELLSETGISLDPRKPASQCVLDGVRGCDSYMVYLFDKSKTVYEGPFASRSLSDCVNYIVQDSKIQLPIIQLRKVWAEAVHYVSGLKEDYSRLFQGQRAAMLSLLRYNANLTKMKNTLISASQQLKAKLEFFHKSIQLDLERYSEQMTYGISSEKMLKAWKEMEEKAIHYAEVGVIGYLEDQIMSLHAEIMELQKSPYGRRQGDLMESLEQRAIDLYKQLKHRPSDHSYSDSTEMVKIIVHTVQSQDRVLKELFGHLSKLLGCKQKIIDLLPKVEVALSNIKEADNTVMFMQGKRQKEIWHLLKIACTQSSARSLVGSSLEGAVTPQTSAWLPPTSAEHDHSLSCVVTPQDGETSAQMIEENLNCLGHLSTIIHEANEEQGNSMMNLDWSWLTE
# PROTOCOL: Inhibition of IKK1
REPORTED METRIC: pIC50
Schema: pIC50 number; meaning minus log10 of the concentration expressed in molar units.

Which pIC50 value belongs to NCc1ccc(-c2cnc3[nH]cc(-c4cccc(NC(=O)Nc5ccc(C(F)(F)F)cc5F)c4)c3c2)cc1 ?
7.49

Cited source for all entries: ChEMBL document CHEMBL1158409
